target: HLA-B*51:01; assay: IEDB peptide-MHC binding, purified MHC/direct/fluorescence; filed as Kd, often an IC50 or EC50 that approximates it; bounds were set here for any values at or beyond the usual limits of such assays; conditions: source organism: Dengue virus

Sequence entry	System tested	Kd
SPSKLASAI	HLA-B*51:01	≥ 20 µM

---

biological target: HLA-B*15:01; experiment: IEDB peptide-MHC binding, purified MHC/competitive/fluorescence; filed as Kd, often an IC50 or EC50 that approximates it; bounds were set here for any values at or beyond the usual limits of such assays; conditions: source organism: Zaire ebolavirus
pKd: −log10 of the molar value.
Catalogue of sequences with associated pKd
Readout label: pKd

Sequence entry	System tested	Readout label	Readout value
DETFVHSGF	HLA-B*15:01	pKd	≤ 4.70
FTFDLTALK	HLA-B*15:01	pKd	≤ 4.70

---

target: HLA-A*01:01; assay: IEDB peptide-MHC binding, purified MHC/competitive/radioactivity; filed as Kd, often an IC50 or EC50 that approximates it; bounds were set here for any values at or beyond the usual limits of such assays; settings: source organism: Mammarenavirus brazilense
pKd: −log10 of the molar value.

Sequence entry	pKd
YNISRKIVY	5.97

---

Catalogue of sequences with associated IC50
target: HLA-A*02:01; assay: IEDB peptide-MHC binding, purified MHC/competitive/radioactivity; bounds were set here for any values at or beyond the usual limits of such assays; conditions: source organism: Homo sapiens

Sequence entry	System tested	Unit label	IC50
HMTEVVRRC	HLA-A*02:01	µM	10.2
VLMAVVLASL	HLA-A*02:01	µM	0.0457

---

target: HLA-A*01:01; assay: IEDB peptide-MHC binding, purified MHC/direct/fluorescence; filed as Kd, often an IC50 or EC50 that approximates it; bounds were set here for any values at or beyond the usual limits of such assays; settings: source organism: Homo sapiens
Readout label: Kd (nM)

Sequence entry	System tested	Unit label	Readout value
GSEDRDLLY	HLA-A*01:01	nM	42.6

---

target: HLA-B*27:05; experiment: IEDB peptide-MHC binding, purified MHC/competitive/fluorescence; filed as Kd, often an IC50 or EC50 that approximates it; bounds were set here for any values at or beyond the usual limits of such assays; details: source organism: Escherichia coli O139:H28 str. E24377A

Sequence entry	Kd [nM]
RQGWARAML	191

---

target: HLA-A*69:01; assay: IEDB peptide-MHC binding, purified MHC/direct/fluorescence; filed as Kd, often an IC50 or EC50 that approximates it; bounds were set here for any values at or beyond the usual limits of such assays; conditions: source organism: Influenza A virus (A/quail/Hong Kong/FY298/00(H9N2))
pKd: −log10 of the molar value.
Readout label: pKd

Sequence entry	System tested	Readout value
TKDAERGKL	HLA-A*69:01	≤ 4.70

---

target: HLA-A*03:01; assay: IEDB peptide-MHC binding, purified MHC/direct/fluorescence; filed as Kd, often an IC50 or EC50 that approximates it; bounds were set here for any values at or beyond the usual limits of such assays; details: source organism: Edwardsiella tarda
pKd: −log10 of the molar value.
Readout label: pKd

Sequence entry	Readout value
AFGLFWLVW	≤ 4.70

---

Catalogue of sequences with associated Kd
target: HLA-B*40:02; assay: IEDB peptide-MHC binding, purified MHC/competitive/radioactivity; filed as Kd, often an IC50 or EC50 that approximates it; bounds were set here for any values at or beyond the usual limits of such assays; conditions: source organism: Mammarenavirus machupoense

Sequence entry	Kd, nM
SDNGILCPT	1330
RECYVQRFYL	5.3
PEIWLQLNTL	109
PEIWLQLNT	9210

---

target: HLA-A*69:01; experiment: IEDB peptide-MHC binding, purified MHC/direct/fluorescence; filed as Kd, often an IC50 or EC50 that approximates it; bounds were set here for any values at or beyond the usual limits of such assays; conditions: source organism: dengue virus type 3

Sequence entry	Kd
TSEHGGRAY	≥ 20 µM

---

molecular target: HLA-A*03:01; assay: IEDB peptide-MHC binding, purified MHC/competitive/fluorescence; filed as Kd, often an IC50 or EC50 that approximates it; bounds were set here for any values at or beyond the usual limits of such assays; conditions: source organism: Streptococcus pneumoniae TIGR4
pKd: −log10 of the molar value.
Readout label: pKd

Sequence entry	System tested	Readout value
YQVEGATRV	HLA-A*03:01	≤ 4.70

---

target: HLA-A*24:02; assay: IEDB peptide-MHC binding, purified MHC/competitive/radioactivity; filed as Kd, often an IC50 or EC50 that approximates it; bounds were set here for any values at or beyond the usual limits of such assays; conditions: source organism: Dengue virus 3 Sri Lanka/1266/2000

Sequence entry	System tested	Kd (µM)
TYQLWTALV	HLA-A*24:02	0.0483

---

target: HLA-A*02:06; assay: IEDB peptide-MHC binding, purified MHC/competitive/radioactivity; filed as Kd, often an IC50 or EC50 that approximates it; bounds were set here for any values at or beyond the usual limits of such assays; settings: source organism: Vaccinia virus WR
pKd: −log10 of the molar value.
Criterion: pKd meeting or surpassing 6. Met: TRUE. Not met: FALSE.

Sequence entry	System tested	Class assignment
PLISILMIFI	HLA-A*02:06	FALSE
LISFFGLFDI	HLA-A*02:06	TRUE
NASKTINALV	HLA-A*02:06	FALSE
IQKDINITHT	HLA-A*02:06	FALSE
DIISSKQYPA	HLA-A*02:06	FALSE
LMDSIFVSTM	HLA-A*02:06	TRUE
HTYHLENDKI	HLA-A*02:06	FALSE
SLDQTHIKTI	HLA-A*02:06	FALSE
DTMRIYCSL	HLA-A*02:06	FALSE
ELTTVFIKYV	HLA-A*02:06	TRUE
ETIQKDINIT	HLA-A*02:06	TRUE

---

biological target: HLA-A*69:01; test: IEDB peptide-MHC binding, purified MHC/direct/fluorescence; filed as Kd, often an IC50 or EC50 that approximates it; bounds were set here for any values at or beyond the usual limits of such assays; conditions: source organism: Ebola virus - Gabon (1994-1997)

Sequence entry	Kd
QLSLKMLSL	≥ 20 µM

---

biological target: HLA-C*06:02; experiment: IEDB peptide-MHC binding, purified MHC/direct/fluorescence; filed as Kd, often an IC50 or EC50 that approximates it; bounds were set here for any values at or beyond the usual limits of such assays; details: source organism: Salmonella enterica subsp. enterica serovar Typhi str. CT18
pKd: −log10 of the molar value.

Sequence entry	pKd
RRRQWASCM	7.62

---

Catalogue of sequences with associated pKd
target: HLA-A*02:03; assay: IEDB peptide-MHC binding, purified MHC/direct/fluorescence; filed as Kd, often an IC50 or EC50 that approximates it; bounds were set here for any values at or beyond the usual limits of such assays; settings: source organism: Zaire ebolavirus
pKd: −log10 of the molar value.
Readout label: pKd

Sequence entry	System tested	Readout value
WQQWDRQSL	HLA-A*02:03	≤ 4.70
TTEANAGQF	HLA-A*02:03	≤ 4.70
DETFVHSGF	HLA-A*02:03	≤ 4.70
FTFDLTALK	HLA-A*02:03	≤ 4.70

---

biological target: HLA-B*57:01; assay: IEDB peptide-MHC binding, purified MHC/competitive/fluorescence; filed as Kd, often an IC50 or EC50 that approximates it; bounds were set here for any values at or beyond the usual limits of such assays; conditions: source organism: Vaccinia virus Copenhagen
Readout label: Kd (nM)

Sequence entry	Unit label	Readout value
MTRVTNNVY	nM	98.6

---

molecular target: HLA-A*02:06; test: IEDB peptide-MHC binding, purified MHC/competitive/radioactivity; filed as Kd, often an IC50 or EC50 that approximates it; bounds were set here for any values at or beyond the usual limits of such assays; conditions: source organism: SARS coronavirus Tor2
pKd: −log10 of the molar value.
Catalogue of sequences with associated pKd
Readout label: pKd

Sequence entry	System tested	Readout label	Readout value
IVDTVSALV	HLA-A*02:06	pKd	7.37
VLWAHGFEL	HLA-A*02:06	pKd	7.69
ALDGVLSTFV	HLA-A*02:06	pKd	6.85
LLSAGIFGA	HLA-A*02:06	pKd	7.61
ALVLLILMTA	HLA-A*02:06	pKd	7.21
IVNSVLLFL	HLA-A*02:06	pKd	7.52
GLIAIVMVTI	HLA-A*02:06	pKd	6.86
LLFQLCTFT	HLA-A*02:06	pKd	7.95
LIDFYLCFL	HLA-A*02:06	pKd	7.96
SMWALVISV	HLA-A*02:06	pKd	9.10
VVHGYFTEV	HLA-A*02:06	pKd	8.58

---

target: HLA-A*02:03; assay: IEDB peptide-MHC binding, purified MHC/competitive/radioactivity; filed as Kd, often an IC50 or EC50 that approximates it; bounds were set here for any values at or beyond the usual limits of such assays; details: source organism: Dengue virus 1 Brazil/97-11/1997
Catalogue of sequences with associated Kd

Sequence entry	Kd / nM
LLATSIFKL	14.3
LLMLLPTALA	49.9
NLKYSVIVTV	5.6
